Recorded values, source the nanobody polyreactivity screen of Harvey et al. (2022).

# Measurement Description: yeast display, Sf9 membrane polyspecificity reagent, FACS + sequencing; frameworks hold sequencing errors
Reported Endpoint: polyreactivity (PSR sort gate)

Would you please look over these solved cases?
[[record]]
sequence_entry = "QVQLVESGGGLVQAGGSRRLSSAASGIILDHNAMGWYRQAPGKERELVAAISSGTRTNYADSVKGRFTISRDNAKNTVYLQMNSLKPEDTAVYYCAATIYRRYPSKSSITSYWGQGTQVTVSS"
result_value = "high polyreactivity"

[[record]]
sequence_entry = "QVQLVESGGGLVQAGGSLRLSCAATGSNFGSNAMGWYRQAPGKEMELVAAITESGGDTYYADSVKGRFTISRDNAKNTVYLQMNSLKPEDSAVFYCAARYFGGIVDVSLFREYGSWGQGTQVTVSS"
result_value = "low polyreactivity"

[[record]]
sequence_entry = "QVQLVESGGGLVQAGGSLRLSCAASGIIFYGYAMGWYRQAPGKERELVAAITYSGGSTYYADSVKGRFTISRDNAKNTVYLQMNSLKPEDTEVYYCAAYDAYSPYQALYDYWGQGTQVTVSS"
result_value = "low polyreactivity"

[[record]]
sequence_entry = "QVQLVESGGGLVQAGGSLRLSCAASGSTFYGYAMGWYRQAPGKERELVAAIRSGGRTYYADSVKGRFTISRDNAKNTVYLQMNSLKPEDTAVYYCNARSFNYRTFGGKMGYWGQGTQVTVSS"
result_value = "high polyreactivity"


Note: attention shifts to another entry.
Challenge: Determine from records and report polyreactivity (PSR sort gate) for QDQLVESGGGLVQAGGSLRLSCAASGSIFNPYAMGWYRQAPGKERELVAAITSGGYTYADSVKGRFTISRDNAKNTVYLQMNSLKPEDTAVYYCAADRSYVYAGADMYYWGQGTQVTVSS
Response given: low polyreactivity

----------
# Measurement Description: yeast display, Sf9 membrane polyspecificity reagent, FACS + sequencing; frameworks hold sequencing errors
Reported Endpoint: polyreactivity (PSR sort gate)

Would you please look over these solved cases?
[[record]]
sequence_entry = "QVQLVESGGGLVQAGGSLRLSCAASGSTFILYAMGCYIQAPGKERELVAAITASGGSTYADSVKGRFTISRDNSKNTVYLQMNSLKPEDSAVYYCAARRWSSKYRKYDYWGQGTQVTVSS"
result_value = "high polyreactivity"

[[record]]
sequence_entry = "QVQLEESGGGLVQAGGSLRLSCAPSVIIFPAYDMGWYRQAPGKERELVAAIRTSGTSTYYADSVKGRFTISRDNAKNTVYLEMNSLKPDDTAVYYCGAYQAYGGDYWGQGTQVTVSS"
result_value = "high polyreactivity"

[[record]]
sequence_entry = "QDQLVESGGGLVQAGGSLRLSCAASGIFPYYAMGGYRQAPGTEREFVAAITRSGGSTYYADSVKGRFTISRDNAKKTVYLQMNSLKPEDTAVYYCNKRYGYTGFSPRYDYWGQGTQVTVSS"
result_value = "low polyreactivity"

[[record]]
sequence_entry = "QVQLVESGGGLVQAGGSLRLSCAASGSTFWYYAMGWYRQAPGKERELVAGITQSGGSTYYADSVKGRFTISRDNEKNTVYLQMNRLKPEDTAVYYCAKDGRVSGDFDYWGQGTQVTVSS"
result_value = "low polyreactivity"

[[record]]
sequence_entry = "QVQLVESGGGLVQAGGSLRLSCAASGRIFRYNAMGWYRQAPGKERELVAAISWTVGRTYYADSVKGRFTISRDNAKNTVYLQMNSLKPEDTAVYYCATYFRVWYRSYDYWGQGTQVTVSS"
result_value = "high polyreactivity"


Challenge: Determine from records and report polyreactivity (PSR sort gate) for QVQLVESGGGLVQAGGSLRLSCAASGFTFVFYAIGWYRQAPGKARELVAAISSRGGSTYYADSVKGRFTISRDNAKNTVYLQMNSLKPEDTAVYYCNVVSPYWTTYEEYYWGQGTQVTVSS
Response given: high polyreactivity

Challenge: Determine from records and report polyreactivity (PSR sort gate) for QVQLVESGGGLVQAGGSLRLSCAASGNILRGYAMGWYRQAPGKERELVAAINRGGGSTYYADSVKGRFTISRDYAKNTVYFQMNSLKPEDTAVYYCAARYPHRGYTFDYWGQGTQVTVSS
Response given: low polyreactivity
